These data points were gathered from ChEMBL document CHEMBL1134878.

Reported values of pIC50 for individual entries
subject.of.test: Voltage-dependent N-type calcium channel subunit alpha-1B (Homo sapiens, UniProt Q00975)
Sequence (Q00975 whole entry): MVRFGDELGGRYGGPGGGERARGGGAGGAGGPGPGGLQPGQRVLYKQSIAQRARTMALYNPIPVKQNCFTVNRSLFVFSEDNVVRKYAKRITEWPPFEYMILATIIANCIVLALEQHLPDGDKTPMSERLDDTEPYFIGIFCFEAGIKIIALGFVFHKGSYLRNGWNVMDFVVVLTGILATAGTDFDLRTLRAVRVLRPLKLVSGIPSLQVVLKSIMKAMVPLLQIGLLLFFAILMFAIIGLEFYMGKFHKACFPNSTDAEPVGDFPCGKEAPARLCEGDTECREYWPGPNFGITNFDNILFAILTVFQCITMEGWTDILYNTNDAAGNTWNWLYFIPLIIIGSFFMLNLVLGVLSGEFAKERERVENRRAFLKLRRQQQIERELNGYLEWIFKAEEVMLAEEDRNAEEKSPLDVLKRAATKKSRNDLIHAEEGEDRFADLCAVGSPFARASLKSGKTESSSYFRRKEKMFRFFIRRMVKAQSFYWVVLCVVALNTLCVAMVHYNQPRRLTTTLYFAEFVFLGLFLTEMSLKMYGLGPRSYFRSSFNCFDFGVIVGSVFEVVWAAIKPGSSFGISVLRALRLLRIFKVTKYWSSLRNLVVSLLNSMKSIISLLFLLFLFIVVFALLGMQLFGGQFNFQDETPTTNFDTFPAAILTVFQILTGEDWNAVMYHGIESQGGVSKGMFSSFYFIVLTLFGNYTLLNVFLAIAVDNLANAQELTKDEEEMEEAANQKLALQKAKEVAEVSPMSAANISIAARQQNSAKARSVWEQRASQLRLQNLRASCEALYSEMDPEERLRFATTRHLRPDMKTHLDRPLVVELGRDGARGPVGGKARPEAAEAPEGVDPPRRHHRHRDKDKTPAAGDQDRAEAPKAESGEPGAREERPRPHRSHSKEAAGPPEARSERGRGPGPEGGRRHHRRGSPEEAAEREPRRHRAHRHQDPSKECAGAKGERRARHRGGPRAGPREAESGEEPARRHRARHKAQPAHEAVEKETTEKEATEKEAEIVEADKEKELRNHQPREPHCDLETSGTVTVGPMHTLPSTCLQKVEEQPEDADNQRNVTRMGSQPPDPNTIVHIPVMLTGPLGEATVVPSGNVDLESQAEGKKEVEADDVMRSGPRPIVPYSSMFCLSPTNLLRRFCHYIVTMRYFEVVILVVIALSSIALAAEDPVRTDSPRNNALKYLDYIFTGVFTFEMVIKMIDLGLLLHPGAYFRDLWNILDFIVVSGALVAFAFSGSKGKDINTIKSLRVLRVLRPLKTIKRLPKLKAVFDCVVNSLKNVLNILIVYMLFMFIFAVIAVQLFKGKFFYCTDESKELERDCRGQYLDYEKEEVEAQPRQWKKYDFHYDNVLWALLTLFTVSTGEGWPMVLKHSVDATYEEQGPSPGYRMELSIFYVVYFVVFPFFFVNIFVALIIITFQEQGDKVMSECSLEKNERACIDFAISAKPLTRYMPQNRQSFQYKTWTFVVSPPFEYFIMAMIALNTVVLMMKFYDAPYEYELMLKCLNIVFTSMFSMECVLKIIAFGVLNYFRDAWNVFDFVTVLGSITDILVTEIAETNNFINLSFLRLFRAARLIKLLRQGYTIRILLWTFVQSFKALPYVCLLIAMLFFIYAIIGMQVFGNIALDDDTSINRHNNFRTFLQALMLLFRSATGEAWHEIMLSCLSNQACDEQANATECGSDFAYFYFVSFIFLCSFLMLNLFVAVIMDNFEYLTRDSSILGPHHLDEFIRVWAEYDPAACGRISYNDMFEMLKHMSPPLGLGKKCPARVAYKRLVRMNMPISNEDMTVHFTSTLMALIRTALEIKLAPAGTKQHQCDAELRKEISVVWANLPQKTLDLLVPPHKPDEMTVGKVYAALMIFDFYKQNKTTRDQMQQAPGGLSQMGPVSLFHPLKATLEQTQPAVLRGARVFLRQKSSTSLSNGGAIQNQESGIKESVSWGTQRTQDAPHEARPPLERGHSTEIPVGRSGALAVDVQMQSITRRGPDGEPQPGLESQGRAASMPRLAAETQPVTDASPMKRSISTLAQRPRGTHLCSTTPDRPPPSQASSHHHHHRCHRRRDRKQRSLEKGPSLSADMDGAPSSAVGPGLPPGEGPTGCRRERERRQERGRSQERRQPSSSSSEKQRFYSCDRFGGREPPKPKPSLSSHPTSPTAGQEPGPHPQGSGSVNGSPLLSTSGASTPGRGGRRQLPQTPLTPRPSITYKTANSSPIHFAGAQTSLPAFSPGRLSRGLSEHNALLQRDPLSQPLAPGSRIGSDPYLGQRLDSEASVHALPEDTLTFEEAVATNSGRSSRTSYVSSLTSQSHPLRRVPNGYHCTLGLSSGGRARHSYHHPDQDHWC
test.description: In vitro inhibition of N-type calcium channel influx in IMR-32 human neuroblastoma cells
Quick note: pIC50 values are minus log10 of concentrations in mol/L.

Completed entries (count: 3):
- chem.smiles: "CC(C)(C)OC(=O)N1CSC[C@H]1C(=O)N[C@@H](CSCC1CCCCC1)C(=O)N1CCN(Cc2ccccc2)CC1"
  subject.of.test: "Voltage-dependent N-type calcium channel subunit alpha-1B (Homo sapiens, UniProt Q00975)"
  pIC50: 6.43
- chem.smiles: "CC(C)(C)OC(=O)N1CSC[C@H]1C(=O)N[C@@H](CSCC1CCCCC1)C(=O)N1CCC(Nc2ccccc2)CC1"
  subject.of.test: "Voltage-dependent N-type calcium channel subunit alpha-1B (Homo sapiens, UniProt Q00975)"
  pIC50: 6.18
- chem.smiles: "CC(C)(C)OC(=O)N1CSC[C@H]1C(=O)N[C@@H](CSCC1CCCCC1)C(=O)NC1CCN(c2ccccc2)CC1"
  subject.of.test: "Voltage-dependent N-type calcium channel subunit alpha-1B (Homo sapiens, UniProt Q00975)"
  pIC50: 6.82

Briefly, pIC50 measured for CC(C)(C)OC(=O)N1CSC[C@H]1C(=O)N[C@@H](CSCC1CCCCC1)C(=O)NC1CCN(Cc2ccccc2)CC1 : 6.48

====

test.description: Selectivity IC50 ratio of L-type blocking activity (AtT-20 mouse pituitary tumor-derived cells) to that of N-type blocking activity (IMR-32 human neuroblastoma cells)
In this section, each of the compounds is paired with its reported Ratio.
Just the number, please, no unit attached.

Ratio in this record for CC(C)(C)OC(=O)N1CSC[C@H]1C(=O)N[C@@H](CSCC1CCCCC1)C(=O)NCCNCc1ccccc1 : 6.3

For record CC(C)(C)OC(=O)N1CSC[C@H]1C(=O)N[C@@H](CSCC1CCCCC1)C(=O)N1CCN(Cc2ccccc2)CC1 the listed Ratio is 2.7

Value of Ratio reported for the compound CC(C)(C)OC(=O)N1CSC[C@H]1C(=O)N[C@@H](CSCC1CCCCC1)C(=O)NCc1ccc(Oc2ccccc2)cc1 is 12

// Ratio value for CC(C)(C)OC(=O)N1CSC[C@H]1C(=O)N[C@@H](CSCC1CCCCC1)C(=O)NC1CCN(c2ccccc2)CC1 : 3.6

Documented Ratio of CC(C)(C)OC(=O)N1CSC[C@H]1C(=O)N[C@@H](CSCC1CCCCC1)C(=O)N1CCN(c2ccccc2)CC1 : 1.5
